Origin of the recorded values: PubChem BioAssay (NCI)

Tested on: A498 renal
Assay: NCI tumour cell line growth inhibition, 48 h; in the data active = GI50 below about 0.43 µM; inactive = the rest
Labels: label 1 (active), label 0 (inactive)

Compound | Classification
CCN(CC)c1ccc(/C=C/C(=O)c2ccc(Nc3nc(Nc4ccccc4)nc(Nc4ccccc4)n3)cc2)cc1 | label 0
C#Cc1cccc(Nc2ncnc3cc(NC(=O)CCl)ccc23)c1 | label 0
COc1cc2cc(Oc3ccc(NC(=O)Nc4cc(C(F)(F)F)cc(C(F)(F)F)c4)cc3)c(C)nc2cc1OCCN1CCOCC1 | label 0
COc1ccc(C(O)c2cc3c(N)c(C(=O)Nc4ccc(Cl)cc4)sc3nc2C)cc1 (stereo not given) | label 0
CN1CCN(CC(=O)N(C)c2ccc(N=C(c3ccccc3)c3c(O)[nH]c4ccc(C#N)cc34)cc2)CC1 | label 1

###

System: ACHN renal
Test: NCI tumour cell line growth inhibition, 48 h; in the data active = GI50 below about 0.43 µM; inactive = the rest
Possible outcomes: YES (active), NO (inactive)

Compound | Classification
COc1ccc(C(O)c2cc3c(N)c(C(=O)Nc4ccc(Cl)cc4)sc3nc2C)cc1 (stereo not given) | NO
CN(C)c1ccc(/C=C\c2ccnc3ccccc23)cc1 | NO
COc1cc2oc(-c3cccc(C(=O)Nc4ccc(Cl)cc4)c3)cc(=O)c2c(OC)c1OC | NO
O=C1/C(=C/c2ccc(Cl)c(Cl)c2)CN(C(=O)C(Cl)Cl)C/C1=C\c1ccc(Cl)c(Cl)c1 | YES
CSc1ccc(C2=C(c3ccccc3)C(=O)OC2)cc1 | NO

###

System: PC-3 prostate
Test: NCI tumour cell line growth inhibition, 48 h
Let's look at some compounds and their measured TGI.

Compound | Unit label | Operator symbol | TGI
COc1cccc(/C=C/C(=O)c2ccc3cc(OC)ccc3c2)c1 | µM | > | 50
O=C1Nc2ccc(Cl)cc2/C1=C\c1c(-c2ccc(Cl)cc2)nc2sc(C3CC3)nn12 | µM | = | 19.6
Oc1ccc(Br)cc1C=Nc1cccc(C(F)(F)F)c1 | µM | = | 33.3
CC(C)=CCc1cc2c(cc1O)C1=C(C(=O)C3=C(C1=O)S(=O)(=O)CCN3)C(C=C(C)C)O2 (centres undefined) | µM | = | 12.8
CC1(C)OP(=O)(c2ccccc2)C=C1Sc1ccc([N+](=O)[O-])cc1[N+](=O)[O-] (centres undefined) | µM | > | 100
COc1cc(/C=C2\C(=O)N(Cc3ccc(Cl)cc3)c3ccccc32)cc(OC)c1OC | µM | = | 17.2
CC(CSC(=N)N)C(N)=O (centres undefined) | µM | > | 100
CCOC(=O)N/N=C(/N)c1cccc(Br)c1 | µM | > | 100
COC(=O)C1(NC(=O)C(Cc2ccccc2)N(C(=O)OC(C)(C)C)C(=O)OC(C)(C)C)CCCC1 (centres undefined) | µM | > | 100
COC(=O)C(CC(C)C)NC(=O)C(NC(=O)c1ccc(-c2ccc(Cl)cc2Cl)o1)C(C)C (centres undefined) | µM | > | 100
O=[N+]([O-])c1ccc(SN=S=NSc2cccc(SN=S=NSc3ccc([N+](=O)[O-])cc3)c2)cc1 | µM | = | 40.1
C[C@@H](CC(O)C(O)C(C)(C)O)C1CCC23CC12CCC1[C@@]2(C)CCC(O)C(C)(C)C2CC(OC2OC(CO)C(O)C(O)C2O)[C@]13C (some centres undefined) | µM | > | 10
CN(C)c1ccc(/C=C/C(=O)c2ccc(O)cc2)cc1 | µM | = | 63.2
C[C@]12C=CC(=O)C=C1CC[C@@H]1[C@@H]2CC[C@@]2(C)[C@H]1CC[C@]2(O)C(N)=O | µM | > | 100
O[C@]12C=C(c3nccc4c3[nH]c3ccccc34)[C@@H]3CCN(CCCC/C=C\CC1)C[C@@]31CC3/C=C\CCCCN3[C@H]12 (some centres undefined) | µM | = | 12
O=C1/C(=C/c2ccc(Cl)c(Cl)c2)CN(C(=O)C(Cl)Cl)C/C1=C\c1ccc(Cl)c(Cl)c1 | µM | = | 0.712
CS(=O)(=O)N1CC(CCl)c2ccc(NO)cc21 (centres undefined) | µM | = | 39.5
Clc1nccc2c(-c3csc(-c4c[nH]c5ccc(Br)cc45)n3)c[nH]c12 | µM | = | 14
COc1cc(OC2OC(CO)C(O)C(O)C2O)c2c(O)c3c(=O)cc(C)oc3cc2c1 (centres undefined) | µM | > | 100

###

System: COLO 205 colon
Test: NCI tumour cell line growth inhibition, 48 h

Compound | TGI
Nc1nc(Nc2ccc(Cl)c(Cl)c2)nc2nc[nH]c12 | 44.3 µM
CCOC(=O)c1c[nH]c(C(=O)OCC)c1-c1cccn1-c1ccccc1 | 38.5 µM
COc1ccc(N2C(=O)c3c(c4[nH]c5ccccc5c4c4ccc(C(C)(C)C)cc34)C2=O)cc1 | > 100 µM
Cc1c(C)c2c(c(N)c1C#N)C(=O)N(O)C2=O | > 100 µM
COc1ccc(C(O)c2cc3c(N)c(C(=O)Nc4ccc(Cl)cc4)sc3nc2C)cc1 (stereo unspecified) | 23 µM
COc1cc2ccc3c4ccccc4cnc3c2cc1OC | > 100 µM
COc1cc[c]([Sn]([c]2ccc(OC)cc2)([c]2ccc(OC)cc2)[c]2ccc(OC)cc2)cc1 | 41.8 µM
CSc1ccc(C2=C(c3ccccc3)C(=O)OC2)cc1 | > 100 µM
O=C/C(=C1/C=Cc2cc([N+](=O)[O-])ccc2S1)c1ccccc1 | > 100 µM
Oc1ccc(Br)cc1C=Nc1cccc(C(F)(F)F)c1 | > 100 µM
CC1(C)OC(=O)C(C)(C)C(=O)O1 | > 100 µM

###

Item-by-item account of TGI
Tested on: SK-MEL-2 melanoma
Assay: NCI tumour cell line growth inhibition, 48 h
Experimental endpoint: TGI (µM)

Compound | Operator symbol | Value
CCCCOCCOCCOC1=CC(=O)c2c(O)ccc(O)c2C1=O | = | 3.52
CCOC(=O)c1c[nH]c(C(=O)OCC)c1-c1cccn1-c1ccccc1 | = | 35.5
CC(=O)Nc1ccc(C(=O)CCl)cc1 | = | 27.8
CCOC(=O)CSc1cc(Cl)c(C)cc1S(=O)(=O)/N=C(/N=C/c1ccc([N+](=O)[O-])s1)NNC | = | 59.1
CC(C)OC(=O)c1ccc(NCc2cc(O)ccc2O)cc1 | = | 27.8
Clc1ccc(Nc2nnc(CNc3ccc(-c4nnc(Nc5ccc(Cl)cc5)s4)cc3)s2)cc1 | = | 67.6
O=C1CC(c2c[nH]c3ccc(F)cc23)C(=O)N1 (stereo unspecified) | > | 100
CCNC(=O)C(C)C1CCC2(C)C=CC(=O)C(C)=C2C1O (stereo unspecified) | > | 100
C#CC[C@@H]1C(=O)N(Cc2ccc(OC)cc2)[C@@H](C(C)C)C(=O)N1Cc1ccc(OC)cc1 | = | 55.1
COc1ccc(C(O)c2cc3c(N)c(C(=O)Nc4ccc(Cl)cc4)sc3nc2C)cc1 (stereo unspecified) | = | 69.6
CCOC1=C2N=C(C(CC)c3ccccc3F)N=C2C(=O)c2ccccc21 (stereo unspecified) | > | 100
O=C(Nc1ccc(Oc2ccc(F)cc2)cc1)[C@@H]1C[C@@H](Cc2ccc(F)cc2)CN1C(=O)Cn1ccnn1 | = | 23
OCC1O[C@H](O[C@@H]2CCCN3CC(O)C(O)[C@@H]23)C(O)C(O)C1O (stereo partly specified) | > | 100
CC1=NN(c2nc(N)nc(NS(=O)(=O)c3cc(C)c(Cl)cc3S)n2)C(C)(C)C1 | > | 10
COc1cc2c(c(OC)c1OC)-c1ccc(NN(C(=O)c3ccccc3)C(=O)c3ccccc3)c(=O)cc1[C@@H](NC(C)=O)CC2 (tested in a mixture with another compound) | = | 16.6
O=S(O)CCCCCSSc1ccccc1 | = | 53.3
O=C1CC2OCC=C3CN4CCC56c7ccccc7N1C5C2C3CC46O (stereo unspecified) | > | 100
CN=C(N)c1ccc(N=C(N)c2ccc(-c3ccc(C(N)=Nc4ccc(C(N)=NC)cc4)cc3)cc2)cc1 | > | 100
NS(=O)(=O)c1ccc(NC(=O)N/N=C/c2ccccc2O)cc1 | > | 100
CC1(C)OC(=O)C(C)(C)C(=O)O1 | > | 100
C/C(=C/C(=O)Nc1ccccc1)Nc1onc(C)c1C | > | 100

###

TGI values by entry
Tested on: HCT-15 colon
Test: NCI tumour cell line growth inhibition, 48 h

Compound | TGI
COc1cc2oc(-c3cccc(C(=O)Nc4ccc(Cl)cc4)c3)cc(=O)c2c(OC)c1OC | > 100 µM
COc1ccc(C(O)/C(=N/N)c2nc3ccc(Cl)cc3[nH]c2=O)cc1 (stereo not drawn) | > 100 µM
COc1cc2c(c(OC)c1OC)-c1ccc(NN(C(=O)c3ccccc3)C(=O)c3ccccc3)c(=O)cc1[C@@H](NC(C)=O)CC2 (tested in a mixture with another compound) | 14.9 µM
Cc1cc2ncn(-c3nc4ccccc4nc3C(C#N)S(C)(=O)=O)c2cc1C (stereo not drawn) | > 100 µM
CC(C)=CCc1cc2c(cc1O)C1=C(C(=O)C3=C(C1=O)S(=O)(=O)CCN3)C(C=C(C)C)O2 (stereo not drawn) | 4.3 µM
CC1=NN(c2nc(N)nc(NS(=O)(=O)c3cc(C)c(Cl)cc3S)n2)C(C)(C)C1 | > 10 µM
O=C1N/C(=N\N=C\c2ccccc2)C(c2ccccc2)O1 (stereo not drawn) | > 100 µM
O=C(O)C1=C/C(=C(/c2ccccc2)c2cc(C(=O)O)c(O)c3ccccc23)c2ccccc2C1=O | > 100 µM
CC(C)N(C(=O)C12C3C4C1C1C2C3C41C#N)C(C)C (stereo not drawn) | > 100 µM
Cc1c(C)c2c(c(N)c1C#N)C(=O)N(O)C2=O | > 100 µM
Cn1c(=O)c2[nH]c(N=O)nc2n(C)c1=O | > 100 µM
COc1ccc(/C=c2\c(=O)[nH]c3nc4ccccc4c(=O)n23)cc1 | > 100 µM
Nc1nc(Nc2ccc(Cl)c(Cl)c2)nc2nc[nH]c12 | 37.2 µM
COc1cnc2c(c1)C(=O)c1c-2n(CCCNC2=NCCS2)c(=O)c2cc(F)ccc12 | 4.53 µM
Cc1ccc(/C=C2\Sc3scc(-c4ccccc4)[n+]3C2=O)cc1 | 50.8 µM
O=C1OC(c2ccccc2)=NC1c1ccccc1 (stereo not drawn) | > 100 µM
CC(C)(C)c1cc(C(=O)Nc2ccccc2C(=O)NCCN)cc(C(C)(C)C)c1 | 3.45 µM
CSc1ncnc2c1cnn2Cc1cn(COCCO)nn1 | > 100 µM
COc1cc(/C=C2\C(=O)N(Cc3ccc(Cl)cc3)c3ccccc32)cc(OC)c1OC | 3.43 µM
NS(=O)(=O)c1ccc(NC(=O)N/N=C/c2ccccc2O)cc1 | > 100 µM
COc1cc(-c2cc(/C=C/C(=O)c3ccc(F)c(F)c3)[nH]n2)cc(OC)c1OC | > 100 µM
O=C1CC2OCC=C3CN4CCC56c7ccccc7N1C5C2C3CC46O (stereo not drawn) | > 100 µM
COc1cc2c(c(OC)c1OC)-c1ccc(SC)c(=O)cc1[C@@H](NCc1ccc(F)cc1)CC2 | 7.64 µM
O=C(Cc1ccccc1)NN1C(=O)C(Cl)C1c1ccccc1Cl (stereo not drawn) | > 100 µM
Cc1ccc(S(=O)c2cccs2)cc1 (stereo not drawn) | > 100 µM
OCC#CCNCl | > 100 µM
CCOC(=O)c1c[nH]c(C(=O)OCC)c1-c1cccn1-c1ccccc1 | > 100 µM
COc1ccc(C(O)c2cc3c(N)c(C(=O)Nc4ccc(Cl)cc4)sc3nc2C)cc1 (stereo not drawn) | 12.9 µM
COc1cccc(/C=C/C(=O)c2ccc3cc(OC)ccc3c2)c1 | 30.8 µM
CC(C)(C)OC(=O)NC1CCCC1C(=O)C1=CCCC1 (stereo not drawn) | > 100 µM
COc1ccc2c(c1)OC(N)=C(C#N)C2c1cc(OC)c(OC)c(OC)c1 (stereo not drawn) | > 100 µM
O=C1CC(c2c[nH]c3ccc(F)cc23)C(=O)N1 (stereo not drawn) | > 100 µM
Cn1c(CBr)nc2c1C(=O)c1nc(CBr)[nH]c(=O)c1C2=O | > 100 µM
CN1CCN(CC(=O)N(C)c2ccc(N=C(c3ccccc3)c3c(O)[nH]c4ccc(C#N)cc34)cc2)CC1 | 14.9 µM
CC1=C(c2nc3ccccc3s2)C(=O)OC1(C)C | > 100 µM
O=c1[nH]/c(=C/c2ccc3c(c2)OCO3)c(=O)[nH]/c1=C/c1ccc2c(c1)OCO2 | > 10 µM
Cc1c(O)c(=O)ccn1CCN | > 100 µM
COc1cc2cc(Oc3ccc(NC(=O)Nc4cc(C(F)(F)F)cc(C(F)(F)F)c4)cc3)c(C)nc2cc1OCCN1CCOCC1 | 2.77 µM
COc1cc(CNCCCCCCN2C(=O)c3cccc4cccc(c34)C2=O)ccc1O | 29.6 µM
Cc1ccc(NC(=O)CCCC(=O)CC(=O)c2ccc(Br)cc2)cc1 | > 100 µM
Nc1ccc2n[se]nc2c1 | > 100 µM
COc1cc2ccc3c4ccccc4cnc3c2cc1OC | > 100 µM
CSC1=NC(=Nc2c(C)cccc2C)C2(CCC(C(C)(C)C)CC2)N1c1ccc(Cl)cc1 (stereo not drawn) | > 100 µM
